test_name: NS1 protein of Zika virus - qHTS assay to identify small molecule inhibitors in human HEK 293 cells (AID 1347053); note: nearly all actives have a fitted effect of over 55% in size
condition_details: HEK293 ZIKV MR766 infection, NS1 TR-FRET, 24 h; series mostly up to 46.1 µM
Text: National Center for Advancing Translational Sciences [NCATS] Johns Hopkins University School of Medicine The non-structural 1 (NS1) protein of zika virus is known to associate with the viral replication complex. This cell-based TR-FRET ZIKV NS-1 assay measures the increased NS-1 protein in human HEK 293 cells after a 24-hour Zika virus infection by a TR-FRET assay readout. […]
Results filed as inconclusive are left out. Calls of active or inactive are those of the source. Calls come from the whole dose curve; as a rule, active = well fitted inhibition curve with a large enough effect; inconclusive = small, poorly fitted or top-dose-only effect; inactive = no such curve, though single readings can be large or run the other way.
Allowed answers: active, inactive

Query: recorded result category for CC(C)(Sc1cc(C(C)(C)C)c(O)c(C(C)(C)C)c1)Sc1cc(C(C)(C)C)c(O)c(C(C)(C)C)c1 in this test
inactive

Fill in: this test's call for COc1ccc2c(c1)c(CC(=O)OCC(=O)O)c(C)n2C(=O)c1ccc(Cl)cc1 is ___
inactive

Which outcome did this test record for the compound CC(C)C1CCC(C(=O)N[C@H](Cc2ccccc2)C(=O)O)CC1 (stereo partly drawn) ?
inactive

In this assay, the call recorded for NC1(c2ccc(-c3nc4ccn5c(=O)[nH]nc5c4cc3-c3ccccc3)cc2)CCC1 was what?
active

Outcome? CO[C@@]12[C@H](COC(N)=O)C3=C(C(=O)C(C)=C(N)C3=O)N1C[C@@H]1N[C@@H]12
inactive

Please share the test call associated with CCOc1cc(N)c(Cl)cc1C(=O)NCC1CN(Cc2ccc(F)cc2)CCO1 (stereo not drawn) .
inactive

Assay outcome for O=C(O)c1cn(C2CC2)c2cc(N3CCNCC3)c(F)cc2c1=O : what was it?
inactive

Test call for this compound, please: COc1ncnc(NS(=O)(=O)c2ccc(N)cc2)c1OC
inactive

Hello, I am checking results. What call was entered for Cc1nnc(C(=O)NC(C)(C)c2nc(C(=O)NCc3ccc(F)cc3)c(O)c(=O)n2C)o1 ?
inactive

Answer briefly: the call reported for CC(C)(C#N)c1cc(Cn2cncn2)cc(C(C)(C)C#N)c1 in this assay.
inactive

Tell me the assay call for COC(=O)Nc1nc2ccc(Sc3ccccc3)cc2[nH]1 please.
inactive

Which outcome did this test record for the compound CCN(C)C(=O)Oc1cccc([C@H](C)N(C)C)c1 ?
inactive

Hi, sorry to bother you, what did the test record for O=C(O)c1cccnc1 ?
inactive

What did the test return for COc1cc2c(Nc3ccc(Br)cc3F)ncnc2cc1OCC1CCN(C)CC1 ?
inactive

Outcome logged for O=C(N[C@H](CO)[C@H](O)c1ccc([N+](=O)[O-])cc1)C(Cl)Cl in this assay:
inactive

Identify the outcome logged in this assay for the compound shown: Nc1nc(N)c2nc(CNc3ccc(C(=O)NC(CCC(=O)O)C(=O)O)cc3)cnc2n1 (stereo not drawn)
inactive

I would be grateful if you could indicate the recorded call for CCOCC(O)COc1ccc(NC(=O)CC[S+](C)C)cc1 (stereo not drawn) .
inactive

Assay result, entry CC1=NN(c2ccccc2)C(=O)C1 — outcome?
inactive

// param item: CC(=O)[C@H]1CC[C@H]2[C@@H]3CCC4=CC(=O)CC[C@]4(C)[C@H]3CC[C@]12C ; yields the recorded call
inactive

Could you check what this test reported for CC(=O)CC(c1ccccc1)c1c(O)c2ccccc2oc1=O (stereo not drawn) ?
inactive

Hello, I am checking results. What call was entered for O=c1oc2c(O)c(O)cc3c(=O)oc4c(O)c(O)cc1c4c23 ?
inactive

Hi team, can someone confirm the assay call for CCn1cc(C(=O)O)c(=O)c2cc(F)c(N3CCNCC3)nc21 ?
inactive

For this compound, state the assay outcome: CO[C@@H]1[C@@H](OC(N)=O)[C@@H](O)[C@H](Oc2ccc3c(O)c(NC(=O)c4ccc(O)c(CC=C(C)C)c4)c(=O)oc3c2C)OC1(C)C
inactive

Hey, what did the test say about CCN(CC)CCn1c(=O)c(Cc2ccc(OC)cc2)nc2ccccc21 ?
inactive

Tell me the recorded outcome of this test for COc1ccccc1OCC(O)COC(N)=O (stereo not drawn) .
inactive

Any idea what this test logged for NC(N)=NC(N)=NCCc1ccccc1 ?
inactive

Would you mind telling me which call this test gave Nc1[nH]c(=O)ncc1F ?
inactive

Please state the recorded outcome for this compound: CC(C(=O)O)c1ccc2c(c1)CC(=O)c1ccccc1S2 (stereo not drawn)
inactive

Assay result, entry COC(=O)Nc1nc2ccc(S(=O)c3ccccc3)cc2[nH]1 (stereo not drawn) — outcome?
inactive

For CC(=O)Oc1ccccc1C(=O)Nc1ncc([N+](=O)[O-])s1 , what call appears in the results of this test?
inactive

Which outcome did this test record for the compound CC(C)(C)C(=O)OCOP(=O)(COCCn1cnc2c(N)ncnc21)OCOC(=O)C(C)(C)C ?
inactive

Hey, what did the test say about CC1(C)[C@H](C(=O)O)N2C(=O)C[C@H]2S1(=O)=O ?
inactive

Write down the call the test reported for this compound. Item: CNC1CCCN(c2c(F)cc3c(=O)c(C(=O)O)cn(C4CC4)c3c2OC)C1 (stereo not drawn)
inactive

# fetch the recorded call for CC(N)C12CC3CC(CC(C3)C1)C2 (stereo not drawn) here
inactive

Entry CNC(=O)c1cc(Oc2ccc(NC(=O)Nc3ccc(Cl)c(C(F)(F)F)c3)cc2)ccn1 : call = ?
inactive

Just curious, what result did CNNCc1ccc(C(=O)NC(C)C)cc1 get here?
inactive

Per the records of this test, what outcome belongs to COc1cc(NS(=O)(=O)c2ccc(N)cc2)nc(OC)n1 ?
inactive

Assay outcome for Clc1ccccc1CN1CCc2sccc2C1 : what was it?
inactive
